B1: F1*; the commonest letter at each place (parent)
chain: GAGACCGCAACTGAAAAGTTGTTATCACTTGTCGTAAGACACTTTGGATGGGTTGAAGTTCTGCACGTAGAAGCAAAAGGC

Variants of: B1
procedure.text: fraction ligated after 30 min (ligated reads / total reads); higher = more ligase activity
measurement.conditions: with F1*sub RNA substrate (template-directed ligation), 42 °C
Give measured fraction ligated for each item. Keep answers brief.
Answers are plain numbers.

Guide cases for fraction ligated, answers given:
>>> number("A24C C28A")
0.727
>>> number("A24C C28T")
0.786
>>> number("T23G A41T")
0.792
>>> number("C40A T49C")
0.116
>>> number("T23G T49A")
0.766
>>> number("T32C G50A")
0.216
>>> number("T29A G46C")
0.779
>>> number("A36C T49A")
0.767

Please go through the list and note fraction ligated for each variant.
1. T29C T35G
2. A24T A39G
3. C40A T43C
4. A24C T44C
5. T29A G55C
6. C40G A57T
7. T44G G55A
8. G34T A41G

[reply]
0.831
0.793
0.768
0.563
0.79
0.79
0.842
0.768
